# credit: ChEMBL document CHEMBL1149560

Give pIC50 for every item shown.
target under test: Cyclin-dependent kinase 2 (Homo sapiens)
Just the number, please; pIC50 means minus log10 of the concentration in mol/L.

Report pIC50 from Cyclin-dependent kinase 2 (Homo sapiens) testing of "N=C1NC(=O)/C(=C/c2ccc(-c3ccc(S(=O)(=O)N4CCOCC4)cc3)o2)S1" 3.82

Report pIC50 from Cyclin-dependent kinase 2 (Homo sapiens) testing of "N=C1NC(=O)/C(=C/c2ccc(-c3ccc(S(N)(=O)=O)c(Cl)c3)o2)S1" 6.24

----------
Give IC50 for every item shown.
Dear colleague, please return just the value in nM, with no unit written.

Report IC50 from Glycogen synthase kinase-3 beta (Homo sapiens, UniProt P49841) testing of "N=C1NC(=O)/C(=C/c2ccc(-c3ccc(S(N)(=O)=O)c(Cl)c3)o2)S1" 14

Report IC50 from Glycogen synthase kinase-3 beta (Homo sapiens, UniProt P49841) testing of "N=C1NC(=O)/C(=C/c2ccc(-c3ccc(S(N)(=O)=O)cc3)o2)S1" 250
